molecular target: PD-L1 (programmed death-ligand 1) (Homo sapiens?) (UniProt Q9NZQ7); test: filter; conditions: Bz-dU at every n; Bmax 0.10; 37 C
Sequence (Q9NZQ7 19-238): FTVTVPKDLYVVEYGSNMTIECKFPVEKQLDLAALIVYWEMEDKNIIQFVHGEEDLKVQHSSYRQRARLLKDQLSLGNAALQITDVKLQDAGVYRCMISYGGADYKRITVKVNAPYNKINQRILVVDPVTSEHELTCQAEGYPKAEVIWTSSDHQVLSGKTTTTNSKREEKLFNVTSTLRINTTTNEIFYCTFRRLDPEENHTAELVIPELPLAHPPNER
VALUE TYPE: Kd (nM)
Kindly answer with a numeric value in nM, unit omitted.

Give PD-L1 (programmed death-ligand 1) (Homo sapiens?) (UniProt Q9NZQ7) Kd for GAGTGACCGTCTGCCTGCCATTTCCTGCTTGCTCTTCCTCCTTTATTTTTCACCTTTCAGCCACACCACCAGCC [PL029]
243

###

target: PD-L1 (programmed death-ligand 1) (Homo sapiens?); assay: inhibition; details: Bz-dU at every n; PD-1/PD-L1 binding ELISA; anti-PD-L1 antibody 1.2 nM
VALUE TYPE: pIC50
Remember, pIC50 is on a log scale: it is -log10 of the molar concentration.

Looking for the measured pIC50 of ATGCCGCACGATCGCCCTATTTTGCGAGTTTAC [PL007] , can you help?
8.33
